test: clinical; conditions: male, human, in vivo, po, 100 mg, Cmax (geometric mean)
MEASURE: Cmax (ng/mL)

                                 cpd_smiles  reading_unit  measured_value
0  O[C@H]1CC[C@H](Nc2ncc3nc(Nc4c(F)cc(F)cc4F)n([C@H]4CCOC4)c3n2)CC1         ng/mL             572

###

test: Toxicokinetics in pregnant female rats; assay type: in vivo, rat; conditions: female, CD [Crl:CD(SD)], rat, plasma, 25 mg/kg/day; pregnant rats, 25 mg/kg/d oral, Gestation Day 16
MEASURE: Cmax

In [3]: df
Out[3]:
                                   compound  measure  measured_value
0  O[C@H]1CC[C@H](Nc2ncc3nc(Nc4c(F)cc(F)cc4F)n([C@H]4CCOC4)c3n2)CC1 [Compound I]     Cmax      1930 ng/mL

###

test: Pharmacokinetics (plasma and urine) of ascending multiple oral doses in healthy volunteers; assay type: in vivo, human; conditions: both sexes, human, plasma, oral, 50 mg, 50 mg QD, Day 14, plasma, healthy subjects (N = 8); geometric mean; read-out: Cmax
MEASURE: Cmax (ng/mL)

>>> print(df.to_string())
                                   compound  measure  measured_value
0  O[C@H]1CC[C@H](Nc2ncc3nc(Nc4c(F)cc(F)cc4F)n([C@H]4CCOC4)c3n2)CC1 [Compound I]     Cmax             740

###

test: Pharmacokinetics (plasma and urine) of ascending multiple oral doses in healthy volunteers; format: in vivo, human; details: both sexes, human, plasma, oral, 200 mg, 200 mg QD, Day 14, plasma, healthy subjects (N = 8); median; read-out: tmax
MEASURE: Tmax

>>> print(df.to_string())
                                   compound  measured_value
0  O[C@H]1CC[C@H](Nc2ncc3nc(Nc4c(F)cc(F)cc4F)n([C@H]4CCOC4)c3n2)CC1 [Compound I]           1.8 h

###

test: Pharmacokinetics of a single ascending oral dose in healthy male subjects; assay type: in vivo, human; conditions: human, in vivo; single oral dose 5 mg, unformulated in capsule, healthy male subjects; geometric mean
MEASURE: half-life (h)

>>> df
                                 cpd_smiles    measure  measured_value
0  O[C@H]1CC[C@H](Nc2ncc3nc(Nc4c(F)cc(F)cc4F)n([C@H]4CCOC4)c3n2)CC1  half-life            19.1

###

assay: Toxicokinetics in pregnant female rabbits; type: in vivo, rabbit; conditions: female, New Zealand White Hra:(NZW)SPF, rabbit, in vivo, po, 20 mg/kg/day, pregnant rabbits, 20 mg/kg/d oral, Gestation Day 18
MEASURE: AUC (ng·h/mL)

>>> print(df.to_string())
                                 cpd_smiles  measure  reading_unit  measured_value
0  O[C@H]1CC[C@H](Nc2ncc3nc(Nc4c(F)cc(F)cc4F)n([C@H]4CCOC4)c3n2)CC1      AUC       ng·h/mL           85000

###

test: Pharmacokinetics (plasma and urine) of ascending multiple oral doses in healthy volunteers; assay type: in vivo, human; conditions: both sexes, human, plasma, oral, 200 mg, 200 mg QD, Day 14, plasma, healthy subjects (N = 8); geometric mean; read-out: Ctrough
MEASURE: concentration at 24 h (ng/mL)

>>> print(df.to_string())
                                 cpd_smiles                measure  reading_unit  measured_value
0  O[C@H]1CC[C@H](Nc2ncc3nc(Nc4c(F)cc(F)cc4F)n([C@H]4CCOC4)c3n2)CC1  concentration at 24 h         ng/mL             643

###

experiment: Pharmacokinetics (plasma and urine) of ascending multiple oral doses in healthy volunteers; assay type: in vivo, human; conditions: both sexes, human, plasma, oral, 50 mg, 50 mg QD, Day 14, plasma, healthy subjects (N = 8); median; read-out: tmax
MEASURE: Tmax (h)

>>> print(df.to_string())
                                 cpd_smiles  measure  measured_value
0  O[C@H]1CC[C@H](Nc2ncc3nc(Nc4c(F)cc(F)cc4F)n([C@H]4CCOC4)c3n2)CC1     Tmax               2

###

test: Oral developmental toxicity study in the rabbit; conditions: female, New Zealand White Hra:(NZW)SPF, rabbit, in vivo, oral
MEASURE: NOAEL (mg/kg/day)

In [3]: df
Out[3]:
                                 cpd_smiles  measure  measured_value
0  O[C@H]1CC[C@H](Nc2ncc3nc(Nc4c(F)cc(F)cc4F)n([C@H]4CCOC4)c3n2)CC1    NOAEL              20

###

assay: Toxicokinetics in pregnant female rats; assay type: in vivo, rat; conditions: female, CD [Crl:CD(SD)], rat, plasma, oral, 25 mg/kg/day; rats, 25 mg/kg/d, 2 hours after dosing on Gestation Day 17; read-out: Dam plasma concentration
MEASURE: concentration at 2 h (ng/mL)

                                 cpd_smiles               measure  measured_value
0  O[C@H]1CC[C@H](Nc2ncc3nc(Nc4c(F)cc(F)cc4F)n([C@H]4CCOC4)c3n2)CC1  concentration at 2 h            1520

###

assay: Toxicokinetics in pregnant female rats; type: in vivo, rat; settings: female, CD [Crl:CD(SD)], rat, plasma, oral, 100 mg/kg/day; rats, 100 mg/kg/d, 2 hours after dosing on Gestation Day 17; read-out: Dam plasma concentration
MEASURE: concentration at 2 h (ng/mL)

In [3]: df
Out[3]:
                                 cpd_smiles               measure  reading_unit  measured_value
0  O[C@H]1CC[C@H](Nc2ncc3nc(Nc4c(F)cc(F)cc4F)n([C@H]4CCOC4)c3n2)CC1  concentration at 2 h         ng/mL            6650

###

assay: Pharmacokinetics (plasma and urine) of ascending multiple oral doses in healthy volunteers; assay type: in vivo, human; details: both sexes, human, plasma, oral, 100 mg, 100 mg QD, Day 1, plasma, healthy subjects (N = 8); median; read-out: tmax
MEASURE: Tmax

In [3]: df
Out[3]:
                                   molecule  measured_value
0  O[C@H]1CC[C@H](Nc2ncc3nc(Nc4c(F)cc(F)cc4F)n([C@H]4CCOC4)c3n2)CC1 [Compound I]             2 h

###

assay: clinical; conditions: male, human, in vivo, po, 100 mg, AUC0-∞
MEASURE: AUC(0-inf)

>>> df
                                 cpd_smiles  measured_value
0  O[C@H]1CC[C@H](Nc2ncc3nc(Nc4c(F)cc(F)cc4F)n([C@H]4CCOC4)c3n2)CC1   15000 ng·h/mL

###

experiment: Pharmacokinetics (plasma and urine) of ascending multiple oral doses in healthy volunteers; format: in vivo, human; settings: both sexes, human, oral; 200 mg QD, Day 14, plasma (N = 8); geometric mean; read-out: t1/2 (converted)
MEASURE: half-life (min)

>>> df
                                 cpd_smiles  measured_value
0  O[C@H]1CC[C@H](Nc2ncc3nc(Nc4c(F)cc(F)cc4F)n([C@H]4CCOC4)c3n2)CC1            1560

###

assay: clinical; conditions: female, human, in vivo, po, 100 mg, AUC0-t, Geometric Means
MEASURE: AUC(0-t) (ng·h/mL)

In [3]: df
Out[3]:
                                 cpd_smiles  measured_value
0  O[C@H]1CC[C@H](Nc2ncc3nc(Nc4c(F)cc(F)cc4F)n([C@H]4CCOC4)c3n2)CC1           13300

###

Test: Pharmacokinetics of a single ascending oral dose in healthy male subjects
Assay type: in vivo, human
Conditions: male, human, in vivo; single oral doses 5-200 mg
Experimental: Methods: The study was a randomized, double-blind, placebo-controlled, single-ascending-dose trial. Forty-five healthy male subjects were enrolled into 1 of the 5 cohorts (active:placebo=7:2 per cohort). Subjects received single oral doses of 5 mg, 25 mg, 50 mg, 100 mg or 200 mg of unformulated Compound I in a capsule, or matching placebo.
MEASURE: AUC(0-t)

                                 cpd_smiles        measured_value
0  O[C@H]1CC[C@H](Nc2ncc3nc(Nc4c(F)cc(F)cc4F)n([C@H]4CCOC4)c3n2)CC1  500 to 24000 ng·h/mL

The origin of these recorded values is patent US8603527B2.
